System: Raji cells
Procedure details: BrdU incorporation assay, glucocorticoid sensitivity of oligonucleotide-transfected Raji cells
Type: cell-based, human
Condition parameters: dexamethasone 5 μM, quadruplicate (Table 7), label dexamethasone = no oligonucleotide transfected
I'd appreciate it if you could supply cell proliferation inhibitory rate values for the items below.
Please state the figure in %; there is no need to write the unit.

[in] I have this substance here, Oligonucleotide 2: an oligonucleotide having a base sequence represented by SEQ ID NO: 2 (5′-AAAAGGGCACAGCTTCTTTTCCCATTTAATGAAA-3′) (listed as DNA, chemistry not given here) , and I need its recorded cell proliferation inhibitory rate.
[out] 36.402

[in] Quick one: cell proliferation inhibitory rate of Oligonucleotide 4: an oligonucleotide having a base sequence represented by SEQ ID NO: 4 (5′-TTTGTCCCCATTATATAGCATTT-3′) (listed as DNA, chemistry not given here) ?
[out] 28.061

[in] Look at this substance and give its reported cell proliferation inhibitory rate. Oligonucleotide 3: an oligonucleotide having a base sequence represented by SEQ ID NO: 3 (5′-TAAGATGACTTTCTTTTCCCCCACGTATCCT-3′) (listed as DNA, chemistry not given here)
[out] 48.256

[in] Fill in: cell proliferation inhibitory rate of Oligonucleotide 5: an oligonucleotide having a base sequence represented by SEQ ID NO: 5 (5′-CAGATTTTTTTATTATGATGT-3′) (listed as DNA, chemistry not given here) is ___
[out] 36.053

----------
Assignment: determine reported cell proliferation inhibitory rate for the given substances.
Test system: Raji cells
Procedure details: BrdU incorporation assay, glucocorticoid sensitivity of oligonucleotide-transfected Raji cells
Type: cell-based, human
Condition parameters: dexamethasone 0.1 μM, quadruplicate (Table 7), label dexamethasone = no oligonucleotide transfected
Mention the unit after the number when you answer.

[in] Quick one: cell proliferation inhibitory rate for Oligonucleotide 2: an oligonucleotide having a base sequence represented by SEQ ID NO: 2 (5′-AAAAGGGCACAGCTTCTTTTCCCATTTAATGAAA-3′) (listed as DNA, chemistry not given here) ?
[out] 10.541%

[in] cell proliferation inhibitory rate for Oligonucleotide 4: an oligonucleotide having a base sequence represented by SEQ ID NO: 4 (5′-TTTGTCCCCATTATATAGCATTT-3′) (listed as DNA, chemistry not given here) ?
[out] 12.464%

[in] Fill blank: measured cell proliferation inhibitory rate of the substance Oligonucleotide 3: an oligonucleotide having a base sequence represented by SEQ ID NO: 3 (5′-TAAGATGACTTTCTTTTCCCCCACGTATCCT-3′) (listed as DNA, chemistry not given here) is ____.
[out] 16.924%

[in] Reported cell proliferation inhibitory rate for Oligonucleotide 5: an oligonucleotide having a base sequence represented by SEQ ID NO: 5 (5′-CAGATTTTTTTATTATGATGT-3′) (listed as DNA, chemistry not given here) : what is it?
[out] 29.842%

----------
Tested on: GRα and GRβ
Procedure details: GRα and GRβ expression levels in Raji cells transfected with oligonucleotide (RT-PCR and PCR);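 as to GAPDH: mean of three independent experiments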;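 as to GRβ: mean of three independent experiments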
Type: cell-based, human
Condition parameters: expression level (band intensity), endogenous control, oligonucleotide 300 nM by electroporation, 24 h
Measured metric: GAPDH
Please give only the number in your answer, with no unit.

[in] Any idea what its GAPDH is? The substance is Oligonucleotide 5: an oligonucleotide having a base sequence represented by SEQ ID NO: 5 (5′-CAGATTTTTTTATTATGATGT-3′) (listed as DNA, chemistry not given here)
[out] 3087.403

[in] What value of GAPDH has been reported for the following substance? Oligonucleotide 4: an oligonucleotide having a base sequence represented by SEQ ID NO: 4 (5′-TTTGTCCCCATTATATAGCATTT-3′) (listed as DNA, chemistry not given here)
[out] 2991.776

[in] # get_value(readout='GAPDH', item= Oligonucleotide 3: an oligonucleotide having a base sequence represented by SEQ ID NO: 3 (5′-TAAGATGACTTTCTTTTCCCCCACGTATCCT-3′) (listed as DNA, chemistry not given here) )
[out] 3128.467

[in] I would be grateful if you could share the reported GAPDH for Oligonucleotide 2: an oligonucleotide having a base sequence represented by SEQ ID NO: 2 (5′-AAAAGGGCACAGCTTCTTTTCCCATTTAATGAAA-3′) (listed as DNA, chemistry not given here) .
[out] 3169.938

[in] Entry Oligonucleotide 1: an oligonucleotide having a base sequence represented by SEQ ID NO: 1 (5′-CTTTCTGGTTTTAACCACATAACATTCTATA-3′) (listed as DNA, chemistry not given here) : reported GAPDH = ?
[out] 3033.167

----------
Kindly supply the reported GRβ values for the records listed here.
Test system: GRα and GRβ
Procedure details: GRα and GRβ expression levels in Raji cells transfected with oligonucleotide (RT-PCR and PCR);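 as to GRβ: mean of three independent experiments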
Assay type: cell-based, human
Condition parameters: expression level (band intensity), oligonucleotide 300 nM by electroporation, 24 h
Description: Raji cells (manufactured by Japan Health Science Foundation) derived from human Burkitt's lymphoma were used in experiments. […] The expression level of glyceraldehyde-3-phosphate dehydrogenase (GAPDH) was determined as an endogenous control. […] After the PCR was performed, DNA was separated by […] electrophoresis on a 2% agarose gel containing ethidium bromide, and the intensity of bands was quantified using an image analyzer GEL PRINT 2000i/VGA (manufactured by Genomic Solutions).
Reply with just the number.

[in] Form field: reported GRβ of Oligonucleotide 1: an oligonucleotide having a base sequence represented by SEQ ID NO: 1 (5′-CTTTCTGGTTTTAACCACATAACATTCTATA-3′) (listed as DNA, chemistry not given here)
[out] 4611.084

[in] GRβ lookup needed for Oligonucleotide 5: an oligonucleotide having a base sequence represented by SEQ ID NO: 5 (5′-CAGATTTTTTTATTATGATGT-3′) (listed as DNA, chemistry not given here) , thanks.
[out] 4516.989

[in] Look at this substance and give its reported GRβ. Oligonucleotide 2: an oligonucleotide having a base sequence represented by SEQ ID NO: 2 (5′-AAAAGGGCACAGCTTCTTTTCCCATTTAATGAAA-3′) (listed as DNA, chemistry not given here)
[out] 4641.922

[in] Quick one: GRβ for Oligonucleotide 3: an oligonucleotide having a base sequence represented by SEQ ID NO: 3 (5′-TAAGATGACTTTCTTTTCCCCCACGTATCCT-3′) (listed as DNA, chemistry not given here) ?
[out] 4596.457

[in] Sample Oligonucleotide 4: an oligonucleotide having a base sequence represented by SEQ ID NO: 4 (5′-TTTGTCCCCATTATATAGCATTT-3′) (listed as DNA, chemistry not given here) — what was its GRβ?
[out] 4592.806

----------
Tested on: GRα and GRβ
Procedure details: GRα and GRβ expression levels in Raji cells transfected with oligonucleotide (RT-PCR and PCR);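 as to GRβ: mean of three independent experiments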
Format: cell-based, human
Condition parameters: oligonucleotide 300 nM, cells not transfected = 1
Measured metric: Relative value of GRα/GRβ
Would you mind answering with just the numeric figure?

[in] Which value of Relative value of GRα/GRβ has been reported for Oligonucleotide 5: an oligonucleotide having a base sequence represented by SEQ ID NO: 5 (5′-CAGATTTTTTTATTATGATGT-3′) (listed as DNA, chemistry not given here) in the records?
[out] 1.210

[in] What Relative value of GRα/GRβ value was documented for this substance, Oligonucleotide 1: an oligonucleotide having a base sequence represented by SEQ ID NO: 1 (5′-CTTTCTGGTTTTAACCACATAACATTCTATA-3′) (listed as DNA, chemistry not given here) ?
[out] 1.213

[in] What value of measured Relative value of GRα/GRβ is listed for Oligonucleotide 2: an oligonucleotide having a base sequence represented by SEQ ID NO: 2 (5′-AAAAGGGCACAGCTTCTTTTCCCATTTAATGAAA-3′) (listed as DNA, chemistry not given here) ?
[out] 1.226

[in] Quick one: Relative value of GRα/GRβ for Oligonucleotide 3: an oligonucleotide having a base sequence represented by SEQ ID NO: 3 (5′-TAAGATGACTTTCTTTTCCCCCACGTATCCT-3′) (listed as DNA, chemistry not given here) ?
[out] 1.182
